Provide the reported growth of each item.
System: LOX IMVI melanoma
Test: NCI-60 one-dose screen, 48 h (100 = growth as untreated, 0 = no growth, -100 = all killed)
Conditions: 10 µM
Procedure: Growth inhibition of the LOX IMVI human tumor cell line is measured as a screen for anti-cancer activity. Cells are grown in 96 well plates and exposed to the test compound for 48 hours. Compounds are tested at a single concentration, which is 10^-5 M for most compounds. The reported endpoint is percent growth (GI% or GIPRCNT), where numbers from 0 - 100% represent growth inhibition, and numbers from -100% - 0 represent cell death. For example, a value of 40 represents 60% growth inhibition. […]
This is part of a sample that, as a whole, favours compounds with a hit. Of some 83,000 tested, about 20% had one in any assay.
Numbers only, in %.

| compound | unit_spec | growth |
| --- | --- | --- |
| OCC1OC(n2ccc3c2ncn2ncnc32)C(O)C1O (configuration not stated) | % | 12.9 |
| CC1(c2ccccc2)CO1 (configuration not stated) | % | 103 |
| CC(C)C(C)(C)C(=O)C(C)(C)C(C)(C)C | % | 93.3 |

Give growth for all compounds that follow.
1. CCOc1ccccc1NC(=O)CCl
2. NC(=O)N1CCOCC1
3. N#C/C(=C\NC(=S)N=Nc1c(O)[nH]c2ccccc12)c1nc2ccccc2s1
4. CC(=O)NC(O)C(Cl)Cl (configuration not stated)

1. 85.3
2. 107
3. 96.6
4. 87.8

----------
System: HS 578T breast
Test: NCI-60 one-dose screen, 48 h (100 = growth as untreated, 0 = no growth, -100 = all killed)
Settings: 10 µM unless noted
The panel holds about 83,000 compounds, 20% with a hit somewhere; the sample as a whole holds those more often.
For each entry below, report its growth value.
One number for each entry, in %.

Answered cases to consult:
| compound | unit_spec | growth |
| --- | --- | --- |
| C/C(=N\O)c1ccccn1 | % | 95.5 |
| COc1cc(OC)c2cc(C(=O)c3ccc(C#N)cc3)c(=O)oc2c1 | % | 82.1 |
| Nc1nc(Cl)cc(Cl)n1 | % | 113 |

// for each compound below, give its growth
1. Cc1ccccc1CC(N)C(=O)O (stereo not drawn)
2. COc1ccc(C(=O)/C(=N/Nc2ccccc2)c2ccc(OC)cc2)cc1
3. CCCCCCCCCCCCCCCCCC(=O)NCCNC(=O)CCCCCCCCCCCCCCCCC
4. CC(=O)OC/C(C)=C\CC(C)COC(C)=O (stereo not drawn)

1: 114; 2: 102; 3: 107; 4: 100

Would you mind listing growth for each of the following compounds?
1. COc1ccc(/C=N/NC(=O)COCC(=O)N/N=C/c2ccc(OC)cc2)cc1
2. CC(=O)c1cccc(NS(=O)(=O)c2ccc(C)cc2)c1
3. CN(C)Cc1ccccn1
4. COc1ccc2c(Cl)cc(NC(=O)Nc3c(C)cccc3C)nc2c1
5. ClCC(Cl)[C@@H]1CC2C=CC1C2 (stereo partly drawn)
6. COC(c1ccc2c(c1)OCO2)C(C)Br (stereo not drawn)

1: 114; 2: 86.9; 3: 114; 4: 57.2; 5: 108; 6: 91.2

----------
Test system: A549/ATCC NSCLC
Experiment: NCI-60 one-dose screen, 48 h (100 = growth as untreated, 0 = no growth, -100 = all killed)
Details: 10 µM unless noted
Compounds without any hit were thinned out: in the full panel of roughly 83,000, 20% have a hit.
# label = 1 (yes) if growth >= 80% else 0 (no)

| compound | label |
| --- | --- |
| FC(F)(F)c1cc(NC2=NCCN=C(Nc3cc(C(F)(F)F)cc(C(F)(F)F)c3)SS2)cc(C(F)(F)F)c1 | 0 (no) |
| C=C1SC(=Nc2c(C)cccc2C)N(c2nc(Cl)nc(Cl)n2)C12CCCCC2 | 1 (yes) |
| Oc1ccc(N=Cc2ccc(OCc3ccccc3)cc2)cc1 | 1 (yes) |
| CC(C)C1CCC(C)C(O)C1 (configuration not stated) | 1 (yes) |

// inclusive: growth at least 80%? input: O=S(=O)(c1ccc(NC(=S)NCc2cccnc2)cc1)N1CCCCC1
0 (no)

Entry CC1(C)OC2C(CO)OC(n3ccc(=O)[nH]c3=O)C2O1 (configuration not stated) please
0 (no)

----------
Could you please report measured growth for the items listed next?
Tested on: OVCAR-4 ovarian
Test: NCI-60 one-dose screen, 48 h (100 = growth as untreated, 0 = no growth, -100 = all killed)
Settings: 10 µM unless noted
About 83,000 compounds went through this panel and 20% of them were active in at least one assay; those are over-represented in the sample as a whole.
One number for each entry, in %.

| compound | growth (%) |
| --- | --- |
| Clc1ccc(C(SCc2ccccc2)SCc2ccccc2)cc1 | 89 |
| C=CCC(O)C=C (stereo not given) | 106 |
| Nc1nc(Cl)cc(Cl)n1 | 112 |
| O=S(=O)(O)c1ccc(O)c(C2CCCCC2)c1 | 94.4 |
| NC(=S)N/N=C/c1ccc(OC(=O)COc2ccc(Cl)cc2)cn1 | 59.2 |

List the reported growth of each compound below.
1. Cc1ccc([N+](=O)[O-])c(C)n1
2. N#CC1(O)CCCCC1
3. Nc1ncnc(Nc2ccccc2)n1
4. Cc1ccc(S(=O)(=O)CCCl)cc1
5. CC(=O)OC/C(C)=C\CC(C)COC(C)=O (stereo not given)
6. Cc1cc(C(=O)NN)c(C#N)c(=O)[nH]1

[99.1, 126, 109, 107, 105, 107]

Give me growth for each of these compounds, listed below.
1. Nc1nnc2cc(F)ccc2n1
2. CCOc1ccncc1[N+](=O)[O-]
3. OCC1CCC(O)C(CO)N1 (stereo not given)
4. NC(=O)c1cc2c3ccccc3ccn2c1-c1ccccc1

1. 115
2. 116
3. 94.6
4. 43.2

----------
Test system: SF-268 CNS
Test: NCI-60 one-dose screen, 48 h
Details: 10 µM unless noted
Compounds without any hit were thinned out: in the full panel of roughly 83,000, 20% have a hit. Activity calls are given as the source filed them. The calls were made as follows: active = growth percent below 10; inactive = the rest.
Pick one and only one: Yes for active, No for inactive

Reference set, count: 8
| molecule | label |
| --- | --- |
| Nc1c(O)c(S(=O)(=O)O)c(O)c2c1C(=O)c1ccccc1C2=O | No |
| Cc1nc(C)c(C(=O)O)cc1C(=O)O | No |
| C/C(O)=C(/C=N/C(=S)Nc1ccccc1)C(=O)Nc1ccccc1C | No |
| C=CCC(OC(C)=O)c1ccc(OC)c(OC)c1 (stereo not drawn) | No |
| Oc1ccc(CCC2CCNc3ccccc32)cc1 (stereo not drawn) | No |
| COc1ccc(Br)c2c1C(=O)CC2 | No |
| CCC12OC(COc3ccccc3)CN1CCN2c1ccccc1 (stereo not drawn) | No |
| C/C(=N\N=C(/C)c1cccc([N+](=O)[O-])c1)c1cccc([N+](=O)[O-])c1 | No |

I would be grateful if you could indicate the recorded call for C[n+]1c(/C=C\C=C\N2CCCCC2)sc2ccccc21 .
No

Entry COC1CC(OC(=O)c2ccc([N+](=O)[O-])cc2)C(COC(=O)c2ccc([N+](=O)[O-])cc2)O1 (stereo not drawn) please
No

----------
Tested on: EKVX NSCLC
Experiment: NCI-60 one-dose screen, 48 h (100 = growth as untreated, 0 = no growth, -100 = all killed)
Details: 10 µM unless noted
Compounds without any hit were thinned out: in the full panel of roughly 83,000, 20% have a hit.
observed_property: growth (%)
Numbers only, in %.

Example results:
| molecule | unit_spec | value_measured |
| --- | --- | --- |
| COc1cccc(C(=O)O)c1OC | % | 91.9 |
| C1Cc2onc(-c3noc4c3CCC4)c2C1 | % | 104 |
| CC(=O)NC(CCC(=O)c1ccccc1)C(=O)O (stereo unspecified) | % | 99.2 |
| CCCCCCCCCCCCSC1=C(Cl)C(=O)C(OC)=C(OC)C1=O | % | 37.9 |
| CSCCC(NC(=O)C(Cl)Cl)C(=O)O (stereo unspecified) | % | 90.2 |

As a next step, examine the molecule that follows.
Which growth is reported for this molecule? CC(=O)OCC1OC(n2cnc3c(=S)nc(N)[nH]c32)C(OC(C)=O)C1OC(C)=O (stereo unspecified)
83.9

----------
Tested on: SK-MEL-28 melanoma
Assay: NCI-60 one-dose screen, 48 h (100 = growth as untreated, 0 = no growth, -100 = all killed)
Conditions: 10 µM unless noted
Compounds without any hit were thinned out: in the full panel of roughly 83,000, 20% have a hit.
Field: growth. Provide a value for each of the compounds that follow.
Numbers only, in %.

Examples with answers:
| compound | target_entity | growth (%) |
| --- | --- | --- |
| O=C(O)c1ccc([N+](=O)[O-])cc1S(=O)(=O)O | SK-MEL-28 melanoma | 103 |
| O=S1(=O)c2ccccc2Oc2ccccc21 | SK-MEL-28 melanoma | 99.4 |
| CCC(/C=C\C(C)=O)CC | SK-MEL-28 melanoma | 101 |
| CN=S(=O)(OCCCCCOS(=O)(=NC)c1ccc(C)cc1)c1ccc(C)cc1 (stereo not drawn) | SK-MEL-28 melanoma | 93.5 |
| Cn1c(=O)[nH]c2ccccc2c1=O | SK-MEL-28 melanoma | 117 |

Give growth for each listed item.
1. COc1cc(N)c2ncccc2c1Cl
2. O=C(c1ccc(Cl)cc1)N1CCCCC1
3. O=S(Cc1ccccc1)/C(=C/NC(=S)Nc1ccccc1)c1ccccc1 (stereo not drawn)

1: 121; 2: 101; 3: 106

Hi there! I need growth for each item below, if you can.
1. C=C1C(=O)C2CCN1CC2
2. CCNc1ccc2ccccc2c1N=Nc1ccc(N=Nc2ccccc2)cc1
3. Cn1c(=O)c2nc3c(=O)n(C)c(=O)n(C)c3nc2n(C)c1=O
4. O=C(OC1CCCC1)c1ccccc1Cl

95.6
120
122
107

// growth lookup, key: CCC1CCC(C)NC1 (stereo not drawn)
102
